Molecular target: Corticotropin releasing factor receptor (Rattus norvegicus, UniProt P47866+P35353)
Assay: In vitro binding affinity to the CRF receptor in rat cortical homogenates
Rule: measured Ki below 2 nM gets t; anything equal to or greater than 2 nM gets f.

CCC(CCOC)n1c(C2CC2)nc2c(-c3ccc(C(F)(F)F)cc3Cl)ccnc21 (stereo unspecified) : f
CCCC(C)n1c(CC)nc2c(-c3ccc(OC)cc3C)ccnc21 (stereo unspecified) : t
CCc1nc2c(-c3ccc(Cl)cc3Cl)ccnc2n1[C@H](C)C1CC1 : t
CCc1nc2c(-c3ccc(Cl)cc3Cl)ccnc2n1C(CC)CC : t
CCc1nc2c(-c3ccc(Cl)cc3Cl)ccnc2n1C(CCOC)C1CC1 (stereo unspecified) : t
CCc1nc2c(-c3ccc(C(F)(F)F)cc3Cl)ncnc2n1C(C1CC1)C1CC1 : t
